Values were extracted from the supplement of paper PMC6757056.

B1: library; a variant is named by its letters at N, in order (parent)
chain: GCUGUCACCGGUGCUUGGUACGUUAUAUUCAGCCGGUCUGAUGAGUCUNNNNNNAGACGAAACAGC

variants of: B1; test: normalized RNA/DNA level without ligand (relative to sTRSVctl = 100) (log10 (% of sTRSVctl)); HEK293T overexpressing SLC46A1; higher = less ribozyme self-cleavage, higher mRNA level; conditions: without (6R,S)-folinic acid; ligand present: no
Listed here: items and their measured normalized RNA/DNA level without ligand (log10).
Answer field: number only, no words.

mutation_spec=GGGGGU observed_value=2.04
mutation_spec=UAACUC observed_value=2.05
mutation_spec=CAACAG observed_value=1.98
mutation_spec=ACGUCU observed_value=2.04
mutation_spec=AGCCGU observed_value=2.02

Q) Suppose we examine the variant CCAACC ; what normalized RNA/DNA level without ligand (log10) value has been reported?
A) 2.03

Q) Suppose we examine the variant ACACUA ; what normalized RNA/DNA level without ligand (log10) value has been reported?
A) 2.02
